Entries and their growth
# System: UACC-62 melanoma
# ASSAY INFO: NCI-60 one-dose screen, 48 h (100 = growth as untreated, 0 = no growth, -100 = all killed)
# EXPERIMENTAL PARAMETERS: 10 µM unless noted
About 83,000 compounds went through this panel and 20% of them were active in at least one assay; those are over-represented in the sample as a whole.

COMPOUND	TARGET SYSTEM	UNIT ABBREVIATION	growth
CSc1ccccc1C#C/C=C\C#Cc1ccccc1N1CCCCC1=O	UACC-62 melanoma	%	78.5
COc1ccc(C2NC3=C(CCCC3)C(C#N)(C#N)C2(C#N)C#N)cc1 (stereo unspecified)	UACC-62 melanoma	%	75.4
O=[N+]([O-])c1ccc(S(=O)(=O)N2CCN(c3ccnc4cc(Cl)ccc34)CC2)c([N+](=O)[O-])c1	UACC-62 melanoma	%	81.8
O=C1NC(Cc2c[nH]c3ccccc23)C(=O)N1Cc1ccc(Cl)cc1 (stereo unspecified)	UACC-62 melanoma	%	86.1
NC(=O)c1c(NC(=O)c2ccc3c(c2)OCO3)sc2c1CCC(=O)C2	UACC-62 melanoma	%	-37.8
C/C1=C\CCC2(C)OC2CC2CCC(C)(O)C(CC1)C2(C)C (stereo unspecified)	UACC-62 melanoma	%	88
COc1cc2c(cc1OC)C1(C)N(CC2)C(=O)OC1(C)C (stereo unspecified)	UACC-62 melanoma	%	106
COc1cccc2nc(Nc3ccc(NC(=O)c4ccc5ncccc5c4)cc3)ccc12	UACC-62 melanoma	%	97.4
Oc1ccc(Cl)cc1-c1cc(-c2ccc(Cl)cc2)n[nH]1	UACC-62 melanoma	%	64
CC(C)(C)c1ccc(S(=O)(=O)Oc2ccc3c4c(c(=O)oc3c2)CCCCC4)cc1	UACC-62 melanoma	%	30.3
Nc1c(C(=O)Nc2ccccc2)sc2nc3c(cc12)CN(Cc1ccccc1)CC3	UACC-62 melanoma	%	70.6
Cc1cc(Nc2nc(C(=O)Nc3ccccc3)nc3ccccc23)n[nH]1	UACC-62 melanoma	%	59.9
Cc1nc2sccn2c1-c1csc(Nc2ccccc2Cl)n1	UACC-62 melanoma	%	46.7
COc1ccc(-c2nc3sccn3c2-c2ccnc(NCCCNS(=O)(=O)c3ccc(C)cc3)n2)cc1	UACC-62 melanoma	%	10.9
COc1cc2nc(Cl)nc(NCCO)c2cc1OC	UACC-62 melanoma	%	108
COc1cccc(-n2cc(-c3nc(Cl)c4ccccc4n3)nn2)c1	UACC-62 melanoma	%	97.4
O=C(CSc1nc(-c2ccc(Cl)cc2)cn1-c1ccc(Cl)cc1)c1ccc(Br)cc1	UACC-62 melanoma	%	72.1
COc1cc(CCn2nnc3c(Nc4ccc(N5CCOCC5)cc4)ncnc32)cc(OC)c1	UACC-62 melanoma	%	91.5
COc1ccccc1OCC(=O)Nc1sc2c(c1C(N)=O)CCC2	UACC-62 melanoma	%	49.7
COC(=O)c1ccc(C)cc1	UACC-62 melanoma	%	106
Cc1cc(C)c2c(=O)[nH]c(SCC(=O)Nc3cccc(S(=O)(=O)N(C)C)c3)nc2n1	UACC-62 melanoma	%	98.3
COc1cc(-c2csc(NC(=O)Nc3ccc(Cl)cc3Cl)n2)cc(OC)c1OC	UACC-62 melanoma	%	30.9
CC1CCc2c(sc(NC(=O)CSc3nnc4ccccn34)c2C(N)=O)C1 (stereo unspecified)	UACC-62 melanoma	%	101
C=C1C(=O)O[C@H]2[C@H]1CC/C(COC(=O)NCc1ccc(OC)cc1)=C\CC[C@@]1(C)O[C@@H]21	UACC-62 melanoma	%	27.5
CC(=O)OCC1OC(OCC2OC(OC(C)=O)C(OC(C)=O)C(OC(C)=O)C2OC(C)=O)C(OC(C)=O)C(OC(C)=O)C1OC(C)=O (stereo unspecified)	UACC-62 melanoma	%	92.2
NC(=O)NNC(=O)c1ccccc1	UACC-62 melanoma	%	104
COc1cccc(NC(=O)Cn2cc3c(=O)oc4ccccc4c3n2)c1	UACC-62 melanoma	%	100
COc1cccc2cc(-c3cc4ccccc4[nH]3)c(=NC(=O)c3ccc(Cl)cc3)oc12	UACC-62 melanoma	%	73.8
COc1ccc(/C=C2\C(=O)N(C(=O)c3csc(NC(C)=O)n3)N=C2C)cc1	UACC-62 melanoma	%	108
CC(=O)Nc1ccc(S(=O)(=O)N2C(=O)CCC2C(=O)Nc2ccc(Br)cc2)cc1 (stereo unspecified)	UACC-62 melanoma	%	15.3
O=C(CN1CCN(c2cc3c(cc2F)c(=O)c(C(=O)O)cn3C2CC2)CC1)Nc1ccc(C(=O)/C=C/c2ccccc2)cc1	UACC-62 melanoma	%	35.5
Cc1ccc2c(c1)C(=O)C(c1c(-c3[nH]c(=O)c4ccc(C)cc4c3O)c(O)c3ccccc3c1O)=NC2=O	UACC-62 melanoma	%	29.5
OCc1c(-c2ccccc2)nc2sccn12	UACC-62 melanoma	%	101
O=C(c1c[nH]c2ccccc12)C(Sc1nc2ccccc2c(=O)[nH]1)c1ccccc1 (stereo unspecified)	UACC-62 melanoma	%	102
c1cc(-c2ccc3c(c2)OCO3)n2nccc2n1	UACC-62 melanoma	%	113
COc1ccc2c(c1)C=CC(C#N)N2C(=O)c1ccccc1 (stereo unspecified)	UACC-62 melanoma	%	26.3
COc1ccc(S(=O)(=O)N2CCN(c3cc4c(cc3F)c(=O)c(C(=O)O)cn4C3CC3)CC2)c(OC)c1	UACC-62 melanoma	%	84.4
O=S(=O)(NCCCNc1nccc(-c2c(-c3ccc(F)c(O)c3)nc3sccn23)n1)c1ccc(Cl)cc1	UACC-62 melanoma	%	6.74
CCN1C(=O)N(CC)C2C1NN=c1s/c(=C\c3cccc(F)c3)c(=O)n12 (stereo unspecified)	UACC-62 melanoma	%	33.3
COc1cc(C2C=C(C)N=C3SC(C)=NN32)cc(OC)c1OC (stereo unspecified)	UACC-62 melanoma	%	107
CN=S(=O)(NC(=O)c1ccc(Cl)cc1Cl)c1ccc(Br)s1 (stereo unspecified)	UACC-62 melanoma	%	99.9
